System: SNB-19 CNS
procedure.text: NCI-60 one-dose screen, 48 h
condition.description: 10 µM unless noted
About 83,000 compounds went through this panel and 20% of them were active in at least one assay; those are over-represented in the sample as a whole. Active and inactive are the calls of the source. The calls were made as follows: active = growth percent below 10; inactive = the rest.
# valid calls are active, inactive; nothing else

Worked set:
compound	classification
COc1ccc(-c2c(C)nn3c(NCCN4CCOCC4)cc(C)nc23)cc1OC	inactive
CC[C@@](C)(NC(=O)[C@H](C)NC(=O)CCNC(=O)C(C)(C)NC(=O)[C@H](C)NC(=O)[C@@H]1CCCN1C(=O)[C@@](C)(CC)NC(=O)[C@H](Cc1ccccc1)NC(=O)C1CCCN1C(=O)C(C)(C)NC(=O)C1CCCN1C(=O)C(C)(C)NC(C)=O)C(=O)NCCC(=O)N[C@@H](CC(C)C)C(=O)NC(C)(C)C(=O)NCCC(=O)N[C@@H](CC(C)C)C(=O)NC(C)(C)C(=O)NC(C)(C)C(=O)N[C@@H](CC(C)C)C(=O)NCCC(=O)NCO (stereo not given in full)	active
CCN(CC)CCCNCc1cc(-c2ccccc2)nc2ccccc12	inactive
CCOC(=O)C1=C(C(=O)c2ccc(Br)cc2)C(c2ccc(Br)cc2)NC(=S)N1 (stereo not given)	inactive
Cc1nc(-c2ccccc2)sc1CC#N	inactive

Dear all, I need the recorded test outcome for CCOc1cc(NC(=O)c2ccccc2)c(OCC)cc1N , thank you.
inactive

Follow-up entry: c1ccc(-c2n[nH]c(-c3ccccn3)n2)nc1
inactive

Follow-up entry: Cc1cc(C)c(O)c(CNCCCCCCNCc2cc(C)cc(C)c2O)c1
active
